- protocol-conditions: 348.15 K; 101 kPa; Liquid mixture 1; Drop volume

{"molecule": "CCCCO [butan-1-ol] + O", "interfacial tension, mN/m": 1.2}
{"molecule": "CCCCCCCO [heptan-1-ol] + O", "interfacial tension, mN/m": 7.82}
{"molecule": "CCCCCCO [hexan-1-ol] + O", "interfacial tension, mN/m": 6}
{"molecule": "CCCCCO [pentan-1-ol] + O", "interfacial tension, mN/m": 4.21}

###

- protocol-conditions: 328.15 K; 101 kPa; Liquid mixture 1; Drop volume

{"compound": "CCC(C)(C)OC [2-methoxy-2-methylbutane] + O", "unit-annotation": "mN/m", "interfacial tension": 17}
{"compound": "CCCCCCCCO [octan-1-ol] + O", "unit-annotation": "mN/m", "interfacial tension": 8.67}
{"compound": "CCCCCCO [hexan-1-ol] + O", "unit-annotation": "mN/m", "interfacial tension": 6.29}
{"compound": "CCCCCCCO [heptan-1-ol] + O", "unit-annotation": "mN/m", "interfacial tension": 7.96}
{"compound": "C1CCOCC1 [tetrahydropyran] + O", "unit-annotation": "mN/m", "interfacial tension": 7.28}
{"compound": "CCOC(C)(C)C [2-ethoxy-2-methylpropane] + O", "unit-annotation": "mN/m", "interfacial tension": 19.3}
{"compound": "CCCCCO [pentan-1-ol] + O", "unit-annotation": "mN/m", "interfacial tension": 4.43}
{"compound": "CCCCO [butan-1-ol] + O", "unit-annotation": "mN/m", "interfacial tension": 1.54}
{"compound": "CC(C)OC(C)C [diisopropyl ether] + O", "unit-annotation": "mN/m", "interfacial tension": 21.1}
